The entries below are paired with their reported Kd.
# Measured on: T1, fibrin
# T1 chain 1: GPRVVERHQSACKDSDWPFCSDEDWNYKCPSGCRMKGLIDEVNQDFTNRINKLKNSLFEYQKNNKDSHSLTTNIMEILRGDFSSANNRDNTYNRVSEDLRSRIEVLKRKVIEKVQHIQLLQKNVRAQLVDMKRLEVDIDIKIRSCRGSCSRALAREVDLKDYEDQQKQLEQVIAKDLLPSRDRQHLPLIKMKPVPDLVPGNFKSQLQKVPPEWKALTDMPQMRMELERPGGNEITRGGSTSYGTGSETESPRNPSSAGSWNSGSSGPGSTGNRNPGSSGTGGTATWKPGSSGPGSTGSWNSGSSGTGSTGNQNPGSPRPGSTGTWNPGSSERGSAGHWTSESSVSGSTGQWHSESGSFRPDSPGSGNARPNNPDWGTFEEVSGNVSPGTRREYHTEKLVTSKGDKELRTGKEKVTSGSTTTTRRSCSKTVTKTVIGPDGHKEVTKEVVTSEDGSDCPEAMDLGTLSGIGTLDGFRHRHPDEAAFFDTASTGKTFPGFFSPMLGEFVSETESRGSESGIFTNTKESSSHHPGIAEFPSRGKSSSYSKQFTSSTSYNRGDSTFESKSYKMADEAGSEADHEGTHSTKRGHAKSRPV
# T1 chain 2: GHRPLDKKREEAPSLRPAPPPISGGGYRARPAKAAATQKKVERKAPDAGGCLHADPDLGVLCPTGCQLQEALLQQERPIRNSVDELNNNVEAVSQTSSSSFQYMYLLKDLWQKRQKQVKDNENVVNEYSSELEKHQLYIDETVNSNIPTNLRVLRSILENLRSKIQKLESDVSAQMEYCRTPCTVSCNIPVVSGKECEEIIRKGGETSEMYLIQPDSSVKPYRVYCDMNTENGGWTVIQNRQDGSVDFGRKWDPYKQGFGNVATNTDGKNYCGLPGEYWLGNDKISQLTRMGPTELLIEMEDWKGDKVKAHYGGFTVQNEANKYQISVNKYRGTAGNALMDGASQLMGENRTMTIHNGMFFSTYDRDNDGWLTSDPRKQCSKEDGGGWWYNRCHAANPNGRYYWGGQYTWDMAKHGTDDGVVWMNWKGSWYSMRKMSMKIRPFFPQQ
# T1 chain 3: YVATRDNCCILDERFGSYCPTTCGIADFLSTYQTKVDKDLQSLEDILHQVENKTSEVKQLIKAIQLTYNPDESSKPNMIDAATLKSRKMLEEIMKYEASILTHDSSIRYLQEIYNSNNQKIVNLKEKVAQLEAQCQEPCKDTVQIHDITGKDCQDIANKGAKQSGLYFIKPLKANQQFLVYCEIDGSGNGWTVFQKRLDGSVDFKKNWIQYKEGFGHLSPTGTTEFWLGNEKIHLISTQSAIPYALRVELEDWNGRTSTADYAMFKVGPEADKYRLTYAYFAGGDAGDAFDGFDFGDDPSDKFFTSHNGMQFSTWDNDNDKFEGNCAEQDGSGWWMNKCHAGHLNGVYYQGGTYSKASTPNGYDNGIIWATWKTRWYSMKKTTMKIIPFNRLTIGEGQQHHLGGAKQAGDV
# Assay info: fluorescence polarization, direct binding (n = 2)
Bridge positions count the residues as written; N and C are the ends. Square brackets hold non-standard residues; d marks the D form. Cha = N[C@@H](CC1CCCCC1)C(=O)O; CF5 = 5-carboxyfluorescein; AEEA = NCCOCCOCC(=O)O
Note: unit nM is implicit; provide only the numeric part.

Below: 6 binders and their reported Kd.
{"Binder": "Ac-WQPCPAESWT[Cha]CWDPGGGK(CF5)-NH2 (disulfide 4-12) [Ac-WQPC*PAESWT-Cha-C*WDPGGGK(CF5)-NH2]", "Unit of measurement": "nM", "Kd": 170}
{"Binder": "Ac-KKGWQPCPWESWTFCWDPGGGK(CF5)-NH2 (disulfide 7-15) [Ac-KKGWQPC*PWESWTFC*WDPGGGK(CF5)-NH2]", "Unit of measurement": "nM", "Kd": 710}
{"Binder": "Ac-SGSGSGSGWQPCPWESWTFCWDPGGGK(CF5)-NH2 (disulfide 12-20) [Ac-SGSGSGSGWQPC*PWESWTFC*WDPGGGK(CF5)-NH2]", "Unit of measurement": "nM", "Kd": 470}
{"Binder": "Ac-SGSG[AEEA]WQPCPWESWTFCWDPGGGK(CF5)-NH2 (disulfide 9-17) [Ac-SGSGJWQPC*PWESWTFC*WDPGGGK(CF5)-NH2]", "Unit of measurement": "nM", "Kd": 450}
{"Binder": "Ac-GPPGWQPCPWESWTFCWDPGGGK(CF5)-NH2 (disulfide 8-16) [Ac-GPPGWQPC*PWESWTFC*WDPGGGK(CF5)-NH2]", "Unit of measurement": "nM", "Kd": 250}
{"Binder": "Ac-SGSG[AEEA]WQPCPAESWTFCWDPGGGK(CF5)-NH2 (disulfide 9-17) [Ac-SGSGJWQPC*PAESWTFC*WDPGGGK(CF5)-NH2]", "Unit of measurement": "nM", "Kd": 570}

(Q) # query: Kd of entry Ac-RWQPCPAESWT[Cha]CWDPGGGK(CF5)-NH2 (disulfide 5-13) [Ac-RWQPC*PAESWT-Cha-C*WDPGGGK(CF5)-NH2]
(A) 80
